- Measured On: Inadl_10, Q8NI35
- Sequence (Q8NI35 1673-1763): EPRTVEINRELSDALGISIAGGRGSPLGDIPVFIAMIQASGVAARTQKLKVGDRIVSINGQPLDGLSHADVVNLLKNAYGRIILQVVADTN
- Assay Explanation: holdup assay
- Design: key: below the threshold = too weak to quantify, mostly under pKd 3.1 to 4
- Study Conditions: plain residues with an end cap or a label only (N-terminal biotin on a linker: ado-ado)
Experimental Endpoint: pKd

>>> measured_result("LVEEEEPMNL [HDAC7, Q8WUI4]")
"below the threshold"
>>> measured_result("PEKVSNTTVV [IGSF5, Q9NSI5]")
"below the threshold"
>>> measured_result("SGDGKTSVWI [GJC1, P36383]")
3.54
>>> measured_result("HYPASPDSWV [CTNND2, Q9UQB3]")
3.53
